biological target: B1R receptor of the rat (rB1R) (Rattus norvegicus); construct: expressed in transfected cells; host or cells: CHO K1 cells; experiment: Functional investigation on the bradykinin 1 receptor (B1R), FLIPR Ca2+ assay, rB1R cells; format: cell-based; details: CHO-K1, 10 μM test substance; CHO K1 cells with rat B1R; agonist Des-Arg9 bradykinin; % of maximum achievable inhibition; read-out: B1R antagonism, rat [10 μM] % inhibition
quantity kind: inhibition at 10 µM (%)

# compound, unit name, inhibition at 10 µM
records = [
    ("COc1cc(C)c(S(=O)(=O)Nc2cccc3ccn(CC(=O)N4CCC(Oc5ccncc5)CC4)c23)c(C)c1 [G_CC-92]", "%", 98),
    ("COc1cc(C)c(S(=O)(=O)Nc2ccc3ccn(CC(=O)N(C)CCN4CCC(c5cccc(F)c5)(N5CCN(C)CC5)CC4)c3c2)c(C)c1 [G_CC-99]", "%", 93),
    ("Cc1cc(S(=O)(=O)Nc2cccc3ccn(CC(=O)NCCC4CCN(c5ccncc5)CC4)c23)c(C)cc1Cl [G_CC-28]", "%", 82),
]

====

molecular target: B1R receptor of the rat (rB1R) (Rattus norvegicus, UniProt P97583); construct: expressed in transfected cells; host or cells: CHO K1 cells; experiment: Functional investigation on the bradykinin 1 receptor (B1R), FLIPR Ca2+ assay, rB1R cells; assay type: cell-based; details: CHO-K1, 10 μM test substance; CHO K1 cells with rat B1R; agonist Des-Arg9 bradykinin; % of maximum achievable inhibition; read-out: B1R antagonism, rat [10 μM] % inhibition
quantity kind: inhibition at 10 µM (%)

# smiles notation, inhibition at 10 µM [%]
records = [
    ("COc1cc(C)c(S(=O)(=O)Nc2cccc3ccn(CC(=O)N4CCN(c5ncccn5)CC4)c23)c(C)c1", 73),
    ("COc1cc(C)c(S(=O)(=O)Nc2cccc3ccn(CC(=O)N4CCC(CCN5CCCC5)CC4)c23)c(C)c1", 100),
    ("Cc1cc(S(=O)(=O)Nc2ccc3ccn(CC(=O)N4CCN(CC5CCN(C)CC5)CC4)c3c2)c(C)cc1Cl", 100),
]

====

Biological target: B1R receptor of the rat (rB1R) (Rattus norvegicus, UniProt P97583)
Construct: expressed in transfected cells; host or cells: CHO K1 cells
Sequence (P97583 1-337): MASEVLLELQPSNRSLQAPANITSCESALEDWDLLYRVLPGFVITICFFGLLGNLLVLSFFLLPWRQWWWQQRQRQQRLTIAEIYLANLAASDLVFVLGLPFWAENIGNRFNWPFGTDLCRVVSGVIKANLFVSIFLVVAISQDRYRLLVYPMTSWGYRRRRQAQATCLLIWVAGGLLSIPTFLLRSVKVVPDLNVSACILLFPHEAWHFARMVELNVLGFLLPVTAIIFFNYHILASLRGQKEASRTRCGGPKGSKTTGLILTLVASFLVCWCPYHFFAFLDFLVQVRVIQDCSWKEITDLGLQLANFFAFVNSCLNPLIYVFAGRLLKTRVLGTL
Assay: Functional investigation on the bradykinin 1 receptor (B1R), FLIPR Ca2+ assay, rB1R cells
Assay type: cell-based
Conditions: CHO-K1, 10 μM test substance; CHO K1 cells with rat B1R; agonist Des-Arg9 bradykinin; % of maximum achievable inhibition; read-out: B1R antagonism, rat [10 μM] % inhibition
quantity kind: inhibition at 10 µM (%)

# molecule, inhibition at 10 µM [%]
records = [
    ("O=C(CCn1ccc2cccc(N3Cc4cccc(Cl)c4C3=O)c21)NCC1CCN(c2ccncc2)CC1", 67),
    ("COc1cc(C)c(S(=O)(=O)Nc2cccc3ccn(CCC(=O)N4CCC(c5ccccc5)(N(C)C)CC4)c23)c(C)c1", 59),
    ("O=C(Cn1ccc2ccc(N3Cc4cccc(Cl)c4C3=O)cc21)N1CCC2(CC1)CC(c1ccncc1)=NO2", 54),
    ("COc1cc(C)c(S(=O)(=O)Nc2cccc3ccn(CCC(=O)N4CCC5(CC4)CCN(c4ccncc4)CC5)c23)c(C)c1", 96),
    ("O=C(CCn1ccc2ccc(N3Cc4cccc(Cl)c4C3=O)cc21)N1CCC2(CC1)CCN(Cc1ccc(F)cc1)C2=O", 52),
    ("COc1cc(C)c(S(=O)(=O)Nc2ccc3ccn(CCC(=O)N4CCC5(CC4)CCN(c4ccncc4)CC5)c3c2)c(C)c1", 72),
    ("COc1cc(C)c(S(=O)(=O)Nc2cccc3ccn(CC(=O)N4CCC5(CC4)CCN(c4ccncc4)CC5)c23)c(C)c1", 100),
    ("CN1CCN(C2(c3cccc(F)c3)CCN(CCN(C)C(=O)Cn3ccc4ccc(N5Cc6cccc(Cl)c6C5=O)cc43)CC2)CC1", 78),
]

P = O=C(CCn1ccc2ccc(N3Cc4cccc(Cl)c4C3=O)cc21)N1CCC(Oc2ccncc2)CC1
Q = O=C(CCn1ccc2cccc(NS(=O)(=O)c3ccccc3C(F)(F)F)c21)N1CCC2(CC1)CCN(c1ccncc1)CC2
R = O=C(Cn1ccc2ccc(N3Cc4cccc(Cl)c4C3=O)cc21)N1CCC2(CCC(N3CC(F)(F)C3)CC2)CC1
Please put the entries in order of rising inhibition at 10 µM. Rank the items, then write their labels in that order.
R, P, Q
(R: 13%, P: 69%, Q: 100%)
